I'd appreciate it if you could supply kinase still bound, per cent of control values for the items below.
Biological target: PRKAA2 (human) (UniProt P54646)
Sequence (P54646 whole entry, looked up): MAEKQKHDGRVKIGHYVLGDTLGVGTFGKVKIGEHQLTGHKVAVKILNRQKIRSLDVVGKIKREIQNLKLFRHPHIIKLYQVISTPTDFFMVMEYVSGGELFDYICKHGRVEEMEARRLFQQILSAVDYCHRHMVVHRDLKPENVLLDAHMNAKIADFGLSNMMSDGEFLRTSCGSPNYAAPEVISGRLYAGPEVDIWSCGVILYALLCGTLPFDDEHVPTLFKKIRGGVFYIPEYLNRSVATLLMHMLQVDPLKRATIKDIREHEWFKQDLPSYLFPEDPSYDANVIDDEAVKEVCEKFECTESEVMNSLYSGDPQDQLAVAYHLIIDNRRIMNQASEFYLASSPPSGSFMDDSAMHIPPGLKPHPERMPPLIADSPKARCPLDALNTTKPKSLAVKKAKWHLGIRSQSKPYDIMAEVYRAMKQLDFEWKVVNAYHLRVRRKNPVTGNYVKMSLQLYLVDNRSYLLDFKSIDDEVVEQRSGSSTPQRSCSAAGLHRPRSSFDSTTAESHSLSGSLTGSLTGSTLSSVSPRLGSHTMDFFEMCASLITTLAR
Assay: KINOMEscan competition binding
Conditions: compound 10.0 µM

Request: Look up kinase still bound, per cent of control of "O=C1Nc2cc(Br)ccc2/C1=C1/Nc2ccccc2/C1=N\O" and report it.
Response: 4.2%

Request: Provide measured kinase still bound, per cent of control value, entry: "Cn1cc(C2=C(c3ccc(Cl)cc3Cl)C(=O)NC2=O)c2ccccc21"
Response: 52%

Request: Please report kinase still bound, per cent of control for the following molecule: "Cc1cnc(-c2cnc(NCCNc3ccc(C#N)cn3)nc2-c2ccc(Cl)cc2Cl)[nH]1"
Response: 56%

Request: Entry "COc1ccc(CNC(=O)Nc2ncc([N+](=O)[O-])s2)cc1" needs its kinase still bound, per cent of control filled in; supply it.
Response: 96%
